# Test system: DU-145 prostate
# EXPERIMENT DESCRIPTION: NCI-60 one-dose screen, 48 h
# PARTICULARS: 10 µM unless noted
The panel holds about 83,000 compounds, 20% with a hit somewhere; the sample as a whole holds those more often. Activity calls are given as the source filed them. The calls were made as follows: active = growth percent below 10; inactive = the rest.
Choose one outcome from this list and give only that: y (active), n (inactive)

Solved cases (5 shown):
O=C(Nc1cccc(-c2nc(-c3ccc(NC(=O)c4cccs4)cc3Cl)no2)c1)Nc1ccc(NC(=O)C2CC2)c(C(F)(F)F)c1; y
COc1ccc(-c2nc3cc(Cl)c(Cl)cc3n2CC(=O)N=Nc2c(O)[nH]c3ccccc23)cc1; y
CCN(CC)c1ccc2cc(C(=O)NCCOCCOCCOCCn3cc(CCC(=O)Nc4ccc(C(=O)c5ccc(NC(=O)OC(C)(C)C)cc5)cc4)nn3)c(=O)oc2c1; n
C#CCOc1ccc(C(Nc2ccc(Cl)cc2)c2nnnn2C2CCCCC2)cc1 (stereo unspecified); n
CCOP(=O)(OCC)OC[C@]12CCC(C)(C)C[C@H]1C1=CC[C@@H]3[C@@]4(C)C/C(=C\c5cccnc5)[C@H](OP(=O)(OCC)OCC)C(C)(C)[C@@H]4CC[C@@]3(C)[C@]1(C)CC2; n

Request: # outcome recorded in this test, key = NS(=O)(=O)Oc1ccc2nc(Nc3ccc(F)c(F)c3)ccc2c1
Result: n

Taken from PubChem BioAssay (NCI).
